# target.of.assay: SARS-CoV-2 3CLpro (Severe acute respiratory syndrome coronavirus 2, UniProt P0DTD1)
# assay: biochemical
# Assay type: biochemical
# condition.info: 4 h, sheet LOPAC_screen_w_protease; LOPAC1280 primary screen with protease, 5 µM compound; mean of the two replicates; read-out: mean
Where a name gives a salt, the structure may show the parent alone.

- compound: "COCCOC(=O)C1=C(C)NC(C)=C(C(=O)OC(C)C)C1c1cccc([N+](=O)[O-])c1 (centres unmarked)"
  inhibition at 5 µM [%]: 4.81
- compound: "COCC(=O)O[C@]1(CCN(C)CCCc2nc3ccccc3[nH]2)CCc2cc(F)ccc2[C@@H]1C(C)C [Mibefradil dihydrochloride]"
  inhibition at 5 µM [%]: 4.42
- compound: "c1ccc2c(CC3=NCCN3)cccc2c1 [Naphazoline hydrochloride]"
  inhibition at 5 µM [%]: 4.49
- compound: "S=C=Nc1cccc(C2(N3CCCCC3)CCCCC2)c1 [Metaphit methanesulfonate]"
  inhibition at 5 µM [%]: 5.96
- compound: "C[C@@H]1C(=O)NC2=Nc3cccc(Cl)c3CN21"
  inhibition at 5 µM [%]: 4.1
- compound: "NC(=O)c1ncn([C@@H]2O[C@H](CO)[C@@H](O)[C@H]2O)c1O"
  inhibition at 5 µM [%]: 4.8
- compound: "CN(C)S(=O)(=O)c1ccc2c(c1)/C(=C/c1cc3c([nH]1)CCCC3)C(=O)N2"
  inhibition at 5 µM [%]: 4.85
- compound: "CC(COc1ccccc1)N(CCCl)Cc1ccccc1 (centres unmarked) [Phenoxybenzamine hydrochloride]"
  inhibition at 5 µM [%]: 4.33

###

# target.of.assay: SARS-CoV-2 3CLpro (Severe acute respiratory syndrome coronavirus 2, UniProt P0DTD1)
# assay: biochemical
# Format: biochemical
# Set-up: unit not given here
compounds and their reported Replicate_2
experimental.endpoint: Replicate_2

- compound: "NC1CCN(O)C1=O (racemic) [(±)-HA-966]"
  numeric.value: 1.666
- compound: "C=CC[N+](C)(C)c1ccc(CCC(=O)CCc2ccc([N+](C)(C)CC=C)cc2)cc1.[Br-].[Br-]"
  numeric.value: 3.598
- compound: "C#C[C@]1(O)CC[C@H]2[C@@H]3CCC4=Cc5nc6nc7ccccc7n6cc5C[C@]4(C)[C@H]3CC[C@@]21C"
  numeric.value: 3.428

###

compounds and their reported inhibition at 5 µM
# target.of.assay: SARS-CoV-2 3CLpro (Severe acute respiratory syndrome coronavirus 2)
# assay: biochemical
# Assay type: biochemical
# condition.info: 4 h, read-out: Replicate_2 (LOPAC screen with protease)
Where a name gives a salt, the structure may show the parent alone.
experimental.endpoint: inhibition at 5 µM (%)

- compound: "O=c1c2ccccc2[se]n1-c1ccccc1 [Ebselen, reference compound]"
  numeric.value: 102
- compound: "C[n+]1cc2c3c(ccc2c2ccc4cc5c(cc4c21)OCO5)OCO3 [Sanguinarine chloride]"
  numeric.value: 43.3
- compound: "Oc1cc2c(cc1O)CN(C(=S)NCCc1ccc(Cl)cc1)CCC2 [Capsazepine, reference compound]"
  numeric.value: 90.5
- compound: "N#CC(C#N)=C(N)/C(C#N)=C/c1cc(O)c(O)c(O)c1 [Tyrphostin 51, reference compound]"
  numeric.value: 28.9
- compound: "N[C@@H](CCC(=O)N[C@@H](CSN=O)C(=O)NCC(=O)O)C(=O)O [S-Nitrosoglutathione, reference compound]"
  numeric.value: 41.7
- compound: "O=C(O)C1=CC(=C(c2ccc(O)c(C(=O)O)c2)c2ccc(O)c(C(=O)O)c2)C=CC1=O [Aurintricarboxylic acid, reference compound]"
  numeric.value: 31.9
- compound: "Cc1cc(O)c2c(c1)C(=O)c1cc(O)cc(O)c1C2=O"
  numeric.value: 5.72
- compound: "NCCc1ccc(O)c(O)c1 [Dopamine hydrochloride]"
  numeric.value: 14.6
- compound: "O=C1O/C(=C/Br)CCC1c1cccc2ccccc12 (stereo not drawn) [Bromoenol lactone, reference compound]"
  numeric.value: 99.7
- compound: "CSc1ccc(C(=O)c2[nH]c(=O)[nH]c2C)cc1"
  numeric.value: 10
- compound: "O=C(O)Cc1ccc(O)c(O)c1 [3,4-Dihydroxyphenylacetic acid]"
  numeric.value: 44.4
- compound: "Oc1cc2c(cc1O)[C@H]1c3ccccc3CN[C@@H]1CC2 (racemic) [Dihydrexidine hydrochloride]"
  numeric.value: 98.8

###

# target.of.assay: SARS-CoV-2 3CLpro (Severe acute respiratory syndrome coronavirus 2)
# assay: biochemical
# Assay type: biochemical
# condition.info: 4 h, sheet LOPAC_screen_w_protease; primary screen with protease, 5 µM; replicate 2; read-out: Replicate_2
Structures can show the parent of a compound that is named as a salt.
experimental.endpoint: inhibition at 5 µM (%)

- molecule: "CCCCNc1c(C(=O)OCC)c(C)nc2c1cnn2CC [Tracazolate]"
  target.of.assay: "SARS-CoV-2 3CLpro (Severe acute respiratory syndrome coronavirus 2)"
  numeric.value: -0.341
- molecule: "CN1CCN(CCCN2c3ccccc3Sc3ccc(C(F)(F)F)cc32)CC1 [Trifluoperazine dihydrochloride]"
  target.of.assay: "SARS-CoV-2 3CLpro (Severe acute respiratory syndrome coronavirus 2)"
  numeric.value: 0.293
- molecule: "CC(C)C(=O)Nc1ccc([N+](=O)[O-])c(C(F)(F)F)c1 [Flutamide]"
  target.of.assay: "SARS-CoV-2 3CLpro (Severe acute respiratory syndrome coronavirus 2)"
  numeric.value: -2.13

###

compounds and their reported Replicate_2
# target.of.assay: UniProt P0DTD1
# assay: biochemical
# Format: biochemical
# Design: unit not given here
# condition.info: sheet LOPAC_screen_w_protease; primary screen of LOPAC1280 at 5 µM with protease; replicate 2
experimental.endpoint: Replicate_2

- compound: "CC[C@@H]1Cc2cc(O)ccc2C2=C1c1ccc(O)cc1C[C@H]2CC"
  numeric.value: 2.89
- compound: "NC1(C(=O)O)CCc2cc(C(=O)O)ccc21 (stereo not drawn) [AIDA]"
  numeric.value: 2.7246
- compound: "N#C/C(=C\\c1ccc(O)c(O)c1)C(=O)NCCCc1ccccc1 [Tyrphostin AG 555]"
  numeric.value: 2.988
- compound: "C/C=C1\\C(=O)C[C@H]2[C@@H]3CCC4=CC(=O)CC[C@]4(C)[C@H]3CC[C@]12C [(Z)-Gugglesterone]"
  numeric.value: 1.54
- compound: "C[N+]1(C)C2CCC1CC(OC(=O)c1c[nH]c3ccccc13)C2.[I-] (stereo not drawn)"
  numeric.value: 3.441
- compound: "Cl.c1ccc(CN(CC2=NCCN2)c2ccccc2)cc1 [Antozoline hydrochloride]"
  numeric.value: 2.486

###

# target.of.assay: UniProtKB P0DTD1
# assay: biochemical
# Assay type: biochemical
# condition.info: LOPAC1280 primary screen with protease, 5 µM compound, replicate 2

- compound: "NCCCC(=O)O"
  Replicate_2 (LOPAC_screen_w_protease): 1.628
- compound: "CN1CCN(CC/C=C2/c3ccccc3Sc3ccc(S(=O)(=O)N(C)C)cc32)CC1.Cl [Thiothixene hydrochloride]"
  Replicate_2 (LOPAC_screen_w_protease): 1.066
- compound: "CCCCOC(=O)NS(=O)(=O)c1sc(CC(C)C)cc1-c1ccc(Cn2c(CC)nc3c(C)cc(C)nc32)cc1"
  Replicate_2 (LOPAC_screen_w_protease): 1.2958
- compound: "Nc1ncnc2c1ncn2[C@@H]1O[C@H](C(=O)NC2CC2)[C@@H](O)[C@H]1O"
  Replicate_2 (LOPAC_screen_w_protease): 1.536
- compound: "CCCCOc1cc(CC2CNC(=O)N2)ccc1OC (stereo not drawn)"
  Replicate_2 (LOPAC_screen_w_protease): 2.888
- compound: "COc1cccc(OC)c1OCCNCC1COc2ccccc2O1.Cl (stereo not drawn) [WB-4101 hydrochloride]"
  Replicate_2 (LOPAC_screen_w_protease): 0.8625
- compound: "CCc1cc(Cl)c(O)c(C(=O)NC[C@@H]2CCCN2CC)c1OC.Cl [S-(-)-Eticlopride hydrochloride]"
  Replicate_2 (LOPAC_screen_w_protease): 1.635
- compound: "CC(C)Cc1ccc(C(C)C(=O)O)cc1 (racemic) [(±)-Ibuprofen]"
  Replicate_2 (LOPAC_screen_w_protease): 0.9655
- compound: "Cl.N[C@@H](CCC(=O)O)C(=O)O [L-Glutamic acid hydrochloride]"
  Replicate_2 (LOPAC_screen_w_protease): 1.59

###

molecules and their reported Replicate_1
# target.of.assay: SARS-CoV-2 3CLpro (Severe acute respiratory syndrome coronavirus 2)
# assay: biochemical
# Assay type: biochemical
# Parameters: unit not given here
# condition.info: sheet LOPAC_screen_w_protease; primary screen with protease, compound at 5 µM; replicate 1
Where a name gives a salt, the structure may show the parent alone.

- molecule: "Cn1ccc2cc3c(cc21)CCN3C(=O)Nc1cccnc1 [SB 206553 hydrochloride]"
  target.of.assay: "SARS-CoV-2 3CLpro (Severe acute respiratory syndrome coronavirus 2)"
  Replicate_1: 3.909
- molecule: "NNC(=O)c1ccc(O)cc1 [4-Hydroxybenzhydrazide]"
  target.of.assay: "SARS-CoV-2 3CLpro (Severe acute respiratory syndrome coronavirus 2)"
  Replicate_1: 1.695
- molecule: "C[C@@H](NC(=O)/C(C#N)=C/c1ccc(O)c(O)c1)c1ccccc1 [Tyrphostin AG 527]"
  target.of.assay: "SARS-CoV-2 3CLpro (Severe acute respiratory syndrome coronavirus 2)"
  Replicate_1: 4.113
- molecule: "CNC(=O)[C@H]1O[C@@H](n2cnc3c(NCc4ccc(N)cc4)ncnc32)[C@H](O)[C@@H]1O [AB-MECA]"
  target.of.assay: "SARS-CoV-2 3CLpro (Severe acute respiratory syndrome coronavirus 2)"
  Replicate_1: 2.895
- molecule: "O=C(OCCN1CCCCC1)c1c[nH]c2ccccc12 [SB 203186]"
  target.of.assay: "SARS-CoV-2 3CLpro (Severe acute respiratory syndrome coronavirus 2)"
  Replicate_1: 2.947
- molecule: "COc1cc(/C=C(\\C#N)C(=O)c2ccc(O)c(O)c2)cc(I)c1O [I-OMe-Tyrphostin AG 538]"
  target.of.assay: "SARS-CoV-2 3CLpro (Severe acute respiratory syndrome coronavirus 2)"
  Replicate_1: 2.231
- molecule: "NC(=O)NO [Hydroxyurea]"
  target.of.assay: "SARS-CoV-2 3CLpro (Severe acute respiratory syndrome coronavirus 2)"
  Replicate_1: 4.9936
- molecule: "CC[C@H](C)[C@H]1O[C@]2(CC[C@@H]1C)C[C@@H]1C[C@@H](C/C=C(\\C)[C@@H](O[C@H]3C[C@H](OC)[C@@H](O[C@H]4C[C@H](OC)[C@@H](O)[C@H](C)O4)[C@H](C)O3)[C@@H](C)/C=C/C=C3\\CO[C@@H]4[C@H](O)C(C)=C[C@@H](C(=O)O1)[C@]34O)O2 [Ivermectin]"
  target.of.assay: "SARS-CoV-2 3CLpro (Severe acute respiratory syndrome coronavirus 2)"
  Replicate_1: 2.826
- molecule: "NCCNC(=O)Cc1ccc(NC(=O)Cc2ccc(Nc3ncnc4c3ncn4[C@@H]3O[C@H](CO)[C@@H](O)[C@H]3O)cc2)cc1 [Adenosine amine congener]"
  target.of.assay: "SARS-CoV-2 3CLpro (Severe acute respiratory syndrome coronavirus 2)"
  Replicate_1: 3.268
